# Tested on: OVCAR3/macrophage heterospheroids
# TEST: Response to carboplatin chemotherapy, MTS viability, heterospheroids
# Format: cell-based
# EXPERIMENTAL CONDITIONS: heterospheroids, no treatment, 0-500 μM for 48 hours, MTS, FIG. 10C/14B/15C
QUANTITY NAME: pIC50
Kindly note that pIC50 refers to -log10 of the concentration in mol/L and answer with the value alone.

Please report the recorded pIC50 for `N.N.O=C([O-])C1(C(=O)[O-])CCC1.[Pt+2]` .
3.43

----------
# Test system: OVCAR3 monospheroids
# TEST: Response to carboplatin chemotherapy, MTS viability, monospheroids
# Type: cell-based
# EXPERIMENTAL CONDITIONS: monospheroids after siSIRPα LNP, FIG. 15A
QUANTITY NAME: pIC50
Quick note: pIC50 means taking -log10 of the concentration in moles per liter.

Which value of pIC50 has been reported for `N.N.O=C([O-])C1(C(=O)[O-])CCC1.[Pt+2]` in the records?
3.57
